Target: Glutathione S-transferase Mu 1 (Homo sapiens, UniProt P09488)
Sequence (P09488 whole entry): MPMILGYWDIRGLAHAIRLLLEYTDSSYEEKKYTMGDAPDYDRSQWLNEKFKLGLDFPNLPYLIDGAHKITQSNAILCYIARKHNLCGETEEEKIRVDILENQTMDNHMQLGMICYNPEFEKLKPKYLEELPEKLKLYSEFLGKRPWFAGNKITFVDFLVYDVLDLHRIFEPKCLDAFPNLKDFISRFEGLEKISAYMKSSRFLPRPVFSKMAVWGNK
Assay: Noncompetitive inhibition of human GSTM1 using CDNB as substrate by Lineweaver-Burk plot analysis
metric name: Ki (µM)

smi	measured on	endpoint value
CCCCCCCCCCO[C@H]1C=C(COC(C)=O)C(=O)[C@H](O)[C@H]1O	Glutathione S-transferase Mu 1 (Homo sapiens, UniProt P09488)	4.7

---

Target: Glutathione S-transferase Mu 1 (Homo sapiens, UniProt P09488)
Assay: Competitive inhibition of human GSTM1 using GSH as substrate by Lineweaver-Burk plot analysis

smi	Ki [µM]
CCCCCCCCCCO[C@H]1C=C(COC(C)=O)C(=O)[C@H](O)[C@H]1O	3.2
